# Target Entity: Peroxisome proliferator-activated receptor delta (Homo sapiens)
# Sequence (Q03181 whole entry): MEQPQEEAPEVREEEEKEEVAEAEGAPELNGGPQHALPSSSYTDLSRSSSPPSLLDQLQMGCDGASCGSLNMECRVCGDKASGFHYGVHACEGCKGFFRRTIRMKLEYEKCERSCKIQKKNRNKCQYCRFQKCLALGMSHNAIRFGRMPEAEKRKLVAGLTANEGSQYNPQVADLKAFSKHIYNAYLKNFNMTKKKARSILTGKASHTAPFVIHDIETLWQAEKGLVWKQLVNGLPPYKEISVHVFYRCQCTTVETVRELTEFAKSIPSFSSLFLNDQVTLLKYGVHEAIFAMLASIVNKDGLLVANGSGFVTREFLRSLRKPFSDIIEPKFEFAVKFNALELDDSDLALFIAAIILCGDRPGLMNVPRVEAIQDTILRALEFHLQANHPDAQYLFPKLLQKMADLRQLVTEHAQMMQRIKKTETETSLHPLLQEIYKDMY
# Method: Binding affinity to PPARdelta by radio ligand binding assay
Below, each entry is listed with its recorded IC50.
Experimental Readout: IC50 (nM)

>>> result("CCOC(Cc1ccc2c(c1)cc(C)n2Cc1nc(-c2ccc(C(F)(F)F)cc2)oc1C)C(=O)O (centres undefined)")
372
>>> result("CCOC(Cc1cccc2c1ccn2Cc1nc(-c2ccccc2)oc1C)C(=O)O (centres undefined)")
3500
>>> result("Cc1oc(-c2ccc(C(F)(F)F)cc2)nc1Cn1ccc2cc(CC(OC(C)C)C(=O)O)ccc21 (centres undefined)")
892

* * *

# Target Entity: Peroxisome proliferator-activated receptor alpha (Homo sapiens)
# Sequence (Q07869 whole entry): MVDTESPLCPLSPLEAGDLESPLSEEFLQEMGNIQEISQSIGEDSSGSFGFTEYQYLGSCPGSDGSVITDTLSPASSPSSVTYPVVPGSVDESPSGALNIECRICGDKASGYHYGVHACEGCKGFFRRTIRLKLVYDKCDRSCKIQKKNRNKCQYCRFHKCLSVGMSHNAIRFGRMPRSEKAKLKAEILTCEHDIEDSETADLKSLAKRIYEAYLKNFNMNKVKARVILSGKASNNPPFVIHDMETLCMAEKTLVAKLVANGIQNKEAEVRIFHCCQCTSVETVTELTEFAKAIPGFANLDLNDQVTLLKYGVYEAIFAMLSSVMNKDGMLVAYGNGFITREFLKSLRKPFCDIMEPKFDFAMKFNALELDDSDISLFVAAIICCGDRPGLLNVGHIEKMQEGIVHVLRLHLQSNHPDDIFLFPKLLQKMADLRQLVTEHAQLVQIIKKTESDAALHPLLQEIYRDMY
# Method: Activity at PPARalpha by luciferase reporter gene transactivation assay relative to farglitazar
Below, each entry is listed with its recorded log10(EC50).
Experimental Readout: log10(EC50) (log10 of the value in nM)

>>> result("CCOC(Cc1ccc2c(c1)c(C)cn2Cc1nc(-c2ccc(C(F)(F)F)cc2)oc1C)C(=O)O (stereo not given)")
2.23
>>> result("CCOC(Cc1ccc2c(ccn2Cc2nc(-c3ccc(F)cc3)oc2C)c1)C(=O)O (stereo not given)")
2.80
>>> result("CCOC(Cc1ccc2c(ccn2Cc2nc(-c3cc(OC)cc(OC)c3)oc2C)c1)C(=O)O (stereo not given)")
1.95
>>> result("CCOC(Cc1ccc2c(ccn2Cc2nc(-c3ccc(C(F)(F)F)cc3)oc2C)c1)C(=O)O (stereo not given)")
2.23
>>> result("CCOC(Cc1ccc2c(ccn2Cc2nc(-c3ccc(C(C)(C)C)cc3)oc2C)c1)C(=O)O (stereo not given)")
2.86
>>> result("CCOC(Cc1ccc2c(ccn2Cc2nc(-c3cccc(Cl)c3)oc2C)c1)C(=O)O (stereo not given)")
2.11
>>> result("CCOC(Cc1ccc2c(ccn2Cc2nc(-c3ccccc3Cl)oc2C)c1)C(=O)O (stereo not given)")
2.91
>>> result("CCOC(Cc1ccc2c(ccn2Cc2nc(-c3ccccc3OC)oc2C)c1)C(=O)O (stereo not given)")
3.00
>>> result("CCOC(Cc1cccc2c1ccn2CCCc1nc(-c2ccccc2)oc1C)C(=O)O (stereo not given)")
2.28
>>> result("CCOC(Cc1ccc2c(ccn2Cc2nc(-c3ccccc3)oc2C)c1)C(=O)O (stereo not given)")
2.92
>>> result("CCOC(Cc1ccc2c(ccn2Cc2nc(-c3ccccc3C)oc2C)c1)C(=O)O (stereo not given)")
2.92
>>> result("CCOC(Cc1ccc2c(ccn2Cc2nc(-c3cc(Cl)cc(Cl)c3)oc2C)c1)C(=O)O (stereo not given)")
1.48
>>> result("CCOC(Cc1ccc2c(ccn2Cc2nc(-c3cc(C)cc(C)c3)oc2C)c1)C(=O)O (stereo not given)")
1.30
>>> result("Cc1oc(-c2ccc(C(F)(F)F)cc2)nc1Cn1ccc2cc(CC(OC(C)C)C(=O)O)ccc21 (stereo not given)")
1.30
>>> result("CCCOC(Cc1ccc2c(ccn2Cc2nc(-c3ccc(C(F)(F)F)cc3)oc2C)c1)C(=O)O (stereo not given)")
2.71
>>> result("CCOC(Cc1ccc2c(ccn2Cc2nc(-c3ccc(CC)cc3)oc2C)c1)C(=O)O (stereo not given)")
1.85
>>> result("CCOC(Cc1ccc2c(ccn2Cc2nc(-c3ccc(F)c(C)c3)oc2C)c1)C(=O)O (stereo not given)")
1.70
>>> result("CCOC(Cc1ccc2c(ccn2Cc2nc(-c3ccccc3F)oc2C)c1)C(=O)O (stereo not given)")
3.00
>>> result("CCOC(Cc1ccc2c(ccn2Cc2nc(-c3ccc(C(C)C)cc3)oc2C)c1)C(=O)O (stereo not given)")
2.61
>>> result("COC(Cc1ccc2c(ccn2Cc2nc(-c3ccccc3)oc2C)c1)C(=O)O (stereo not given)")
2.54

* * *

Below, each entry is listed with its recorded pIC50.
# Target Entity: Peroxisome proliferator-activated receptor gamma (Homo sapiens, UniProt P37231)
# Sequence (P37231 whole entry): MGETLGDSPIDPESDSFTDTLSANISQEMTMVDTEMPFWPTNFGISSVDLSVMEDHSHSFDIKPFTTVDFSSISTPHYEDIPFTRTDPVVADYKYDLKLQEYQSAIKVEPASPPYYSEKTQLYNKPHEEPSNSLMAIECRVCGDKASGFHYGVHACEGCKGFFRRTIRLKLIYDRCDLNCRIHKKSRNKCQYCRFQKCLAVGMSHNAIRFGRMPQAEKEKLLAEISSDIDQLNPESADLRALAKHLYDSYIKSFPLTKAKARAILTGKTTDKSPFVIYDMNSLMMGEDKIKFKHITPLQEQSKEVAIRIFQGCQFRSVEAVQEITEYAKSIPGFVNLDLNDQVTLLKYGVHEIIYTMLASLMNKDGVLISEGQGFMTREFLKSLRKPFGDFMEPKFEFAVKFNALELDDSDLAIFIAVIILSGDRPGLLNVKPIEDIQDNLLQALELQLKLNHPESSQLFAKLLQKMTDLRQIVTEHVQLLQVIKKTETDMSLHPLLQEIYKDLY
# Method: Binding affinity to PPARgamma by radio ligand binding assay
pIC50: −log10 of the molar value.
Experimental Readout: pIC50

>>> result("COC(Cc1ccc2c(ccn2Cc2nc(-c3ccccc3)oc2C)c1)C(=O)O (stereo not given)")
6.50
>>> result("CCOC(Cc1ccc2c(ccn2Cc2nc(-c3ccccc3C)oc2C)c1)C(=O)O (stereo not given)")
6.50
>>> result("CCOC(Cc1ccc2c(ccn2Cc2nc(-c3ccc(F)c(C)c3)oc2C)c1)C(=O)O (stereo not given)")
6.87
>>> result("CCOC(Cc1ccc2c(ccn2Cc2nc(-c3ccc(CC)cc3)oc2C)c1)C(=O)O (stereo not given)")
7.57
>>> result("CCOC(Cc1ccc2c(ccn2Cc2nc(-c3cc(Cl)cc(Cl)c3)oc2C)c1)C(=O)O (stereo not given)")
7.15
>>> result("CCOC(Cc1ccc2c(ccn2Cc2nc(-c3ccc(C(C)(C)C)cc3)oc2C)c1)C(=O)O (stereo not given)")
7.82
>>> result("CCOC(Cc1ccc2c(ccn2Cc2nc(-c3ccccc3OC(C)C)oc2C)c1)C(=O)O (stereo not given)")
5.27
>>> result("CCOC(Cc1ccc2c(ccn2Cc2nc(-c3ccc(F)cc3)oc2C)c1)C(=O)O (stereo not given)")
6.42
>>> result("CCOC(Cc1ccc2c(ccn2Cc2nc(-c3ccc(C(C)C)cc3)oc2C)c1)C(=O)O (stereo not given)")
7.89

* * *

# Target Entity: Peroxisome proliferator-activated receptor alpha (Homo sapiens)
# Method: Binding affinity to PPARalpha by radio ligand binding assay
pIC50: −log10 of the molar value.
Experimental Readout: pIC50

>>> result("CCOC(Cc1ccc2c(ccn2Cc2nc(-c3ccccc3F)oc2C)c1)C(=O)O (stereo not given)")
6.13
>>> result("CCOC(Cc1ccc2c(c1)cc(C)n2Cc1nc(-c2ccc(C(F)(F)F)cc2)oc1C)C(=O)O (stereo not given)")
6.45
>>> result("COC(Cc1ccc2c(ccn2Cc2nc(-c3ccccc3)oc2C)c1)C(=O)O (stereo not given)")
6.44
>>> result("CCOC(Cc1ccc2c(ccn2Cc2nc(-c3ccc(F)c(C)c3)oc2C)c1)C(=O)O (stereo not given)")
6.83
>>> result("CCOC(Cc1ccc2c(ccn2Cc2nc(-c3ccc(F)cc3)oc2C)c1)C(=O)O (stereo not given)")
6.92
>>> result("CCOC(Cc1ccc2c(ccn2Cc2nc(-c3ccc(C(C)(C)C)cc3)oc2C)c1)C(=O)O (stereo not given)")
6.76
>>> result("Cc1oc(-c2ccc(C(F)(F)F)cc2)nc1Cn1ccc2cc(CC(OC(C)C)C(=O)O)ccc21 (stereo not given)")
7.21
>>> result("CCOC(Cc1ccc2c(ccn2Cc2nc(-c3ccccc3OC)oc2C)c1)C(=O)O (stereo not given)")
6.74
>>> result("CCOC(Cc1ccc2c(ccn2Cc2nc(-c3cccc(Cl)c3)oc2C)c1)C(=O)O (stereo not given)")
6.40
>>> result("CCOC(Cc1cccc2c1ccn2Cc1nc(-c2ccccc2)oc1C)C(=O)O (stereo not given)")
6.90

// provenance: ChEMBL document CHEMBL1146855
